Target: Cytochrome P450 2D6 (Homo sapiens) (UniProt P10635)
Sequence (P10635 whole entry, looked up): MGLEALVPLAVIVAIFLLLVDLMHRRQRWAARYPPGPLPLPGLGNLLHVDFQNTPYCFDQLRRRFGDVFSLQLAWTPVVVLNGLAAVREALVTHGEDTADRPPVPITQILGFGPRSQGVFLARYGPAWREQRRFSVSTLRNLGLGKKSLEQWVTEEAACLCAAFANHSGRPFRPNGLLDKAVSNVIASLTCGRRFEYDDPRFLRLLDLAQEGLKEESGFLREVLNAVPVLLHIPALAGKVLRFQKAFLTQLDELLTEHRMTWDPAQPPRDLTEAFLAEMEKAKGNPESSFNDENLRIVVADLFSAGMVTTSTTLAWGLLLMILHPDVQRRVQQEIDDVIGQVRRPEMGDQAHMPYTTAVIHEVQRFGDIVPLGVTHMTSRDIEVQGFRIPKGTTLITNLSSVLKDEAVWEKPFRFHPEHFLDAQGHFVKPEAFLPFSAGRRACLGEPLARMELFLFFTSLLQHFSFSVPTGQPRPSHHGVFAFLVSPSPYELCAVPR
Assay: Cytochrome panel assay with activity outcomes
Settings: recombinant CYP, pro-luciferin dealkylation, luminescence, p450-cyp2d6; series mostly up to 57.1 µM
Among all 16,000 compounds or so, about 2,600 (16%) were called active. Another 20% or so got no clear call; they are omitted. The call rests on the fitted dose curve; in most records, active means well fitted curve in the direction sought with a large enough effect; inconclusive means small, poorly fitted or top-dose-only effect, or effect the other way; inactive means no such curve, though single readings can be large or run the other way. The list is a sample of the results.
In this exercise, the only acceptable responses are active, inactive

Please review the entries below; each comes with its answer.
Cc1ccc(-c2nnc(-c3ccc(NC(=O)c4cccs4)cc3)o2)cc1 = inactive
C#CCSc1nnc(-c2sc(-c3ccccc3)nc2C)n1C = active
CCn1c(CC(C)C)n[nH]c1=S = inactive
Cc1ccccc1C(=O)N1CCN(c2ccc([N+](=O)[O-])c(NCc3ccco3)c2)CC1 = inactive
CCOc1c2ccc(C(=O)NCc3ccco3)cc2nn1CC = inactive

Consider now this further compound.
Please share the test call associated with O=C(NCc1ccccc1)C(c1ccc(F)cc1)N(Cc1ccco1)C(=O)c1ccccn1 (stereo unspecified) . inactive

====

Target: Cytochrome P450 2D6 (Homo sapiens) (UniProt P10635)
Assay: Cytochrome panel assay with activity outcomes
Settings: recombinant CYP, pro-luciferin dealkylation, luminescence, p450-cyp2d6; series mostly up to 57.1 µM
About 2,600 (16%) of roughly 16,000 compounds were called active. Another 20% or so got no clear call; they are omitted. The call rests on the fitted dose curve; in most records, active means well fitted curve in the direction sought with a large enough effect; inconclusive means small, poorly fitted or top-dose-only effect, or effect the other way; inactive means no such curve, though single readings can be large or run the other way. The list is a sample of the results.
In this exercise, the only acceptable responses are active, inactive

Please review the entries below; each comes with its answer.
COC(=O)c1cnn(C(=O)c2ccccc2Br)c1N = inactive
CCCCN(CCCC)CCCOC(=O)c1ccc(N)cc1 = active
C=CC(=O)NC(C)(C)Cc1ccccc1 = inactive
CN(C(=O)CN(CCO)CC(=O)N(C)C(C)(C)Cc1ccccc1)C(C)(C)Cc1ccccc1 = active
CCNc1ncc2nc(-c3ccc(Cl)cc3)c(=O)n(Cc3cccc(OC)c3)c2n1 = inactive

Please share the test call associated with O=C(NCc1cccnc1)C1COc2ccccc2O1 (configuration not stated) . inactive

Please share the test call associated with COc1ccc(-c2nc3cnc(N4CCOCC4)nc3n(CCc3ccccc3)c2=O)cc1 . inactive

Please share the test call associated with CCn1ccnc1C[C@@H]1COc2ccccc2O1 . active

====

Molecular target: Cytochrome P450 2D6 (Homo sapiens)
Assay: Cytochrome panel assay with activity outcomes
Details: recombinant CYP, pro-luciferin dealkylation, luminescence, p450-cyp2d6; series mostly up to 57.1 µM
In all, about 16,000 compounds went through this assay and about 2,600 (16%) were called active. Another 20% or so got no clear call; they are omitted. Calls come from the whole dose curve; as a rule, active = well fitted curve in the direction sought with a large enough effect; inconclusive = small, poorly fitted or top-dose-only effect, or effect the other way; inactive = no such curve, though single readings can be large or run the other way. The list is a sample of the results.
In this exercise, the only acceptable responses are active, inactive

COc1cc(C(=O)Nc2ccc(-c3nnc(-c4ccco4)o3)cc2)cc(OC)c1OC = inactive
O=C(Nc1ccc(-n2nncc2-c2ccco2)cc1)c1ccc(F)cc1 = active
CN=C(NC#N)Nc1ccc(C2=NNC(=O)C[C@@H]2C)cc1 = inactive
CC(C)c1cccc2nc3c(c([Si](C)(C)C(C)(C)C)c12)Cn1c-3cccc1=O = inactive
O=C(Nc1cccc2[nH]ncc12)c1ccc(F)cc1 = inactive
O=C(Cc1cccc2ccccc12)N/N=C/c1ccc(Sc2nc3ccccc3s2)o1 = inactive

Consider now this further compound.
Please share the test call associated with CC(C)(C)[Si](C)(C)c1c2c(nc3ccc(OCc4ccccc4)cc13)-c1cccc(=O)n1C2 . inactive
